B1: TMEM192 (parent)
chain: LWILHLLLECYIQYHHSKIRNRGY

variants of: B1; test: protein stability index of a GFP-peptide fusion (GPS, HEK-293T) (PSI 1-6); higher = more stable; conditions: c terminus: a fixed tail appended;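 further: lentivirally expressed fusions sorted by FACS into six bins by GFP to DsRed ratio, PSI derived from sequencing read proportions per bin multiplied by bin number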
PROPERTY_MEASURED: protein stability index
Answers are plain numbers.

| RESIDUE_SEQUENCE | protein stability index |
| --- | --- |
| LWQLHLLLECYIQYHHSKIRNRGY [I3Q] | 1.37 |
| LWILHLLLECYIQYHHSKIRNSGY [R22S] | 2.66 |
| LWILHILLECYIQYHHSKIRNRGY [L6I] | 1.65 |
| LWWLHLLLECYIQYHHSKIRNRGY [I3W] | 1.61 |
| LWILHLLLECYIQYHKSKIRNRGY [H16K] | 1.64 |
| LWILHLLLECYIQYHHMKIRNRGY [S17M] | 1.11 |
| LWILHLLLECYTQYHHSKIRNRGY [I12T] | 2.58 |
| LWILHLLLEHYIQYHHSKIRNRGY [C10H] | 1.98 |

Return reported protein stability index values for all items listed beneath this line.
1. LWILHLLLECYIQYHHSKIRNLGY [R22L]
2. LDILHLLLECYIQYHHSKIRNRGY [W2D]
3. LWILHLMLECYIQYHHSKIRNRGY [L7M]
4. LWILHLLLECYIAYHHSKIRNRGY [Q13A]
5. LWILHLLLECYQQYHHSKIRNRGY [I12Q]
6. LWIPHLLLECYIQYHHSKIRNRGY [L4P]

# output
2.44
1.88
2.51
3.94
1.62
2.85

# input Using the record for LWILQLLLECYIQYHHSKIRNRGY [H5Q] , report its protein stability index.
# output 1.72
